Molecular target: T1, EsCas13d, nuclease-dead (Eubacterium siraeum, UniProt B0MS50, R295A;H300A;R849A;H854A)
T1 sequence: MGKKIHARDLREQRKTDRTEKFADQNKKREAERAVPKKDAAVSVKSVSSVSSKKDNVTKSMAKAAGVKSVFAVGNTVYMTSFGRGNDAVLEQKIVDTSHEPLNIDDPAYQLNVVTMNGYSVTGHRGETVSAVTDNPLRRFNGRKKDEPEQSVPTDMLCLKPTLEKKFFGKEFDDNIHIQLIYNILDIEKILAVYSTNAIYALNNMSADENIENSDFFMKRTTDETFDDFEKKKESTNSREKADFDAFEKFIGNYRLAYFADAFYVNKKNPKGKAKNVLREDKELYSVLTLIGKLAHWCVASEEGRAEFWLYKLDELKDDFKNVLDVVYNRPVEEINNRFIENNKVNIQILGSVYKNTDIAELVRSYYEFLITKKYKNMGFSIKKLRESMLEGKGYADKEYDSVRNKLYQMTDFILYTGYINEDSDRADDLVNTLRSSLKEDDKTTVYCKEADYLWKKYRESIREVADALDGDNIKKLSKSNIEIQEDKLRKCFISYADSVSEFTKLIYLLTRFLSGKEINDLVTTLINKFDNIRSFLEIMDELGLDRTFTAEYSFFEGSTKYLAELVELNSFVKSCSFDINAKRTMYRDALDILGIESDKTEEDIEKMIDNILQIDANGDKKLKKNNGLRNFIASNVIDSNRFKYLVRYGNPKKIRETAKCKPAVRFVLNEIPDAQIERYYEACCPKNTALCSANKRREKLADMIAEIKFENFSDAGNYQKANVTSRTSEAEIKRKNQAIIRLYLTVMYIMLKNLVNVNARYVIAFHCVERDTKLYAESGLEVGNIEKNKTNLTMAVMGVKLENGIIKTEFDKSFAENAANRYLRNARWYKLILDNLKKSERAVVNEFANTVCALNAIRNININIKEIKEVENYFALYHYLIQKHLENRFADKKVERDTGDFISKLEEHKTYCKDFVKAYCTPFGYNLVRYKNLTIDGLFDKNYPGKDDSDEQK
Test: crRNA (strand 1, pre-loaded); Mg2+; 40 mM Tris-HCl pH 7.5, 150 mM NaCl, 6 mM MgCl2, 1 mM DTT, 0.1% Tween-20, 0.2 mg/ml BSA; 25 C; 10 min per concentration, then washed
Conditions: tags: His6-TwinStrep-SUMO cleaved; N-terminal SNAP kept (SNAP-Surface 488); label: 3' end held by stalled T7 RNA polymerase
pKd: −log10 of the molar value.

- binder: "target 1 G17U,A20G (mixed) RNA 1: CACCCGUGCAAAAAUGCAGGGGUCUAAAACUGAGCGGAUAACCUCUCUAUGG RNA 2: GGGAAUGGAUCCACAUCUACGAAUUCGUACCGUAUAGAGGUUAUCCGCUCACCGAGAUCGGAAGAGCACACGU"
  pKd: 7.40
- binder: "target 1 MT 5'PFS GCA 3'PFS UUC (mixed) RNA 1: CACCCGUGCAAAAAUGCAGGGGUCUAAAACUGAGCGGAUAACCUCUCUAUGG RNA 2: GGGAAUGGAUCCACAUCUACGAAUUCGCACCAUAGAGAGGUUAUCCGCUCAUUCAGAUCGGAAGAGCACACGU"
  pKd: 8.00
- binder: "target 1 insG 3' of 7,insA 3' of 4 (mixed) RNA 1: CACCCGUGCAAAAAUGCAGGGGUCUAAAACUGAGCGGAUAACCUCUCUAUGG RNA 2: GGGAAUGGAUCCACAUCUACGAAUUCGUACCAUAGAGAGGUUAUCGCGCAUCACCGAGAUCGGAAGAGCACACGU"
  pKd: 8.26
- binder: "target 2 MT 5'PFS GGA 3'PFS UAC (mixed) RNA 1: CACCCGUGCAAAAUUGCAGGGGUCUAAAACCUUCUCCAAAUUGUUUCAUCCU RNA 2: GGGAAUGGAUCCACAUCUACGAAUUCGGAAGGAUGAAACAAUUUGGAGAAGUACAGAUCGGAAGAGCACACGU"
  pKd: 7.79
- binder: "target 2 MT 5'PFS CGC 3'PFS CUU (mixed) RNA 1: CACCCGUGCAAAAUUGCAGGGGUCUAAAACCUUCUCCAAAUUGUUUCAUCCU RNA 2: GGGAAUGGAUCCACAUCUACGAAUUCCGCAGGAUGAAACAAUUUGGAGAAGCUUAGAUCGGAAGAGCACACGU"
  pKd: 7.85
- binder: "target 3 insG 3' of 5,insG 3' of 5 (mixed) RNA 1: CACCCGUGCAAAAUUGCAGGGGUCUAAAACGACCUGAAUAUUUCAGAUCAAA RNA 2: GGGAAUGGAUCCACAUCUACGAAUUCGUUUUUGAUCUGAAAUAUUCAGGGGUCUGCAGAUCGGAAGAGCACACGU"
  pKd: 7.60
- binder: "target 1 MT 5'PFS CCA 3'PFS UAA (mixed) RNA 1: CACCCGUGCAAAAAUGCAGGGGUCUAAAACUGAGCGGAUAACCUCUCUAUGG RNA 2: GGGAAUGGAUCCACAUCUACGAAUUCCCACCAUAGAGAGGUUAUCCGCUCAUAAAGAUCGGAAGAGCACACGU"
  pKd: 8.41
- binder: "target 3 insG 3' of 6 (mixed) RNA 1: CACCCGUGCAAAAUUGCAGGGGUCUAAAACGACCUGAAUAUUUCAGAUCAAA RNA 2: GGGAAUGGAUCCACAUCUACGAAUUCGUUUUUGAUCUGAAAUAUUCGAGGUCUGCAGAUCGGAAGAGCACACGU"
  pKd: 8.07
- binder: "target 1 insU 3' of 1,insG 3' of 1 (mixed) RNA 1: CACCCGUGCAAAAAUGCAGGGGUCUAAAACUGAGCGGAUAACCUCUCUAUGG RNA 2: GGGAAUGGAUCCACAUCUACGAAUUCGUACCAUAGAGAGGUUAUCCGCUCAUGCCGAGAUCGGAAGAGCACACGU"
  pKd: 7.94
- binder: "target 1 MT 5'PFS GUG 3'PFS UUA (mixed) RNA 1: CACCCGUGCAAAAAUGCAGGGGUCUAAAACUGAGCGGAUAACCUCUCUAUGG RNA 2: GGGAAUGGAUCCACAUCUACGAAUUCGUGCCAUAGAGAGGUUAUCCGCUCAUUAAGAUCGGAAGAGCACACGU"
  pKd: 7.97
- binder: "target 2 MT 5'PFS GAU 3'PFS AUA (mixed) RNA 1: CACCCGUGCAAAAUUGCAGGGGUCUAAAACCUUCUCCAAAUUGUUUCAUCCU RNA 2: GGGAAUGGAUCCACAUCUACGAAUUCGAUAGGAUGAAACAAUUUGGAGAAGAUAAGAUCGGAAGAGCACACGU"
  pKd: 7.85
- binder: "target 1 MT 5'PFS CCU 3'PFS UUA (mixed) RNA 1: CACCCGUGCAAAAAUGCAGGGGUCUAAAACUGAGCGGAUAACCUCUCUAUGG RNA 2: GGGAAUGGAUCCACAUCUACGAAUUCCCUCCAUAGAGAGGUUAUCCGCUCAUUAAGAUCGGAAGAGCACACGU"
  pKd: 7.84
- binder: "target 3 insC 3' of 22,insC 3' of 5 (mixed) RNA 1: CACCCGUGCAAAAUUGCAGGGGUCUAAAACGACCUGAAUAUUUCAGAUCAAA RNA 2: GGGAAUGGAUCCACAUCUACGAAUUCGUUUCUUGAUCUGAAAUAUUCACGGUCUGCAGAUCGGAAGAGCACACGU"
  pKd: 7.49
- binder: "target 2 MT 5'PFS AGG 3'PFS AGA (mixed) RNA 1: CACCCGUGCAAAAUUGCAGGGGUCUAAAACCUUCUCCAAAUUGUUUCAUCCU RNA 2: GGGAAUGGAUCCACAUCUACGAAUUCAGGAGGAUGAAACAAUUUGGAGAAGAGAAGAUCGGAAGAGCACACGU"
  pKd: 8.47
